B1: PhoQ; a variant is named by its letters at X, in order, P23837 (parent)
chain: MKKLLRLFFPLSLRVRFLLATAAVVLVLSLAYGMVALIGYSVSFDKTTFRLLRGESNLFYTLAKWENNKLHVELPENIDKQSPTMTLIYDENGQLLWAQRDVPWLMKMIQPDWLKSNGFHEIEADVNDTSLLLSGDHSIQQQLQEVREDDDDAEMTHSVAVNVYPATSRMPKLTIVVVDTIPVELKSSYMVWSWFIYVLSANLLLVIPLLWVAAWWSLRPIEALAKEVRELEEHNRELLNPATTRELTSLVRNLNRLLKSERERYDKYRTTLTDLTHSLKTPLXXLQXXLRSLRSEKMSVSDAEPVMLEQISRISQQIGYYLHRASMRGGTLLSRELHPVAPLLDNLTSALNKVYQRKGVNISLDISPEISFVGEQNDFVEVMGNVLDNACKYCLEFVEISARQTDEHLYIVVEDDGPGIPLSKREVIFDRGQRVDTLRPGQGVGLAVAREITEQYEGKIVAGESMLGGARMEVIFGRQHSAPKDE

# Variants of: B1
# assay.explanation: enrichment ratio after two sorts for PhoP signalling (ratio (wild type AVST 3.29)); higher = more functional
# condition: with PhoP (E. coli)
Over roughly 140,000 sequences, “enrichment ratio after two sorts for PhoP signalling” has its median near 0; the highest 2% begin near 11. The full list was thinned out, with the highest values kept by preference.
quantity.name: enrichment ratio

Solved entries:
* SVHW | ≤ 0.25
* TIMC | 9
* FGWI | ≤ 0.25
* NHYM | ≤ 0.25

Moving on to the next variant.
Query: Please give the measured enrichment ratio for this variant: `REKA`
Response: ≤ 0.25
